Tested on: Fibroblast
test: Multiplex assay against human fibroblast
Assay type: toxicity, cell-based
condition: 24 h, 10 µM, compound concentration 10 uM, replicate 2
Please go through the items and note down their Population Hoechst High Intensity Objects (%).
Give the value, in units of %, as a plain number.

Inquiry: What value of Population Hoechst High Intensity Objects (%) on Fibroblast does CC1=C(C(=O)Nc2cc3cn[nH]c3cc2F)C(c2ccc(C(F)(F)F)cc2)CC(=O)N1 (stereo not drawn) have?
Reply text: 6

Inquiry: What value of Population Hoechst High Intensity Objects (%) on Fibroblast does CCCSc1nc(N[C@@H]2C[C@H]2c2ccc(F)c(F)c2)c2nnn([C@@H]3C[C@H](OCCO)[C@@H](O)[C@H]3O)c2n1 have?
Reply text: 8

Inquiry: What value of Population Hoechst High Intensity Objects (%) on Fibroblast does CCc1ccc(OCc2ccccc2C(=O)Nc2ccc3nc(C)cc(N)c3c2)cc1.Cl have?
Reply text: 31

Inquiry: What value of Population Hoechst High Intensity Objects (%) on Fibroblast does Cl.O=C(O)c1cc(-c2ccc(C3CCNCC3)cc2)c2ccc(-c3ccc(C(F)(F)F)cc3)cc2c1 have?
Reply text: 8

Inquiry: What value of Population Hoechst High Intensity Objects (%) on Fibroblast does C=CC(=O)Nc1ccc2[nH]c(=O)n(C3CCN(Cc4ccc(-c5nc6cc[nH]c(=O)c6cc5-c5ccccc5)cc4)CC3)c2c1 have?
Reply text: 40

Inquiry: What value of Population Hoechst High Intensity Objects (%) on Fibroblast does CC(C)NC(=O)N1CC[C@H](NC2=Nc3cc(F)ccc3N(CC(F)F)c3ccc(Cl)cc32)C1 have?
Reply text: 10

Inquiry: What value of Population Hoechst High Intensity Objects (%) on Fibroblast does COc1ccccc1CN[C@H]1C2CCN(CC2)[C@H]1C(c1ccccc1)c1ccccc1 have?
Reply text: 1

Inquiry: What value of Population Hoechst High Intensity Objects (%) on Fibroblast does Cc1nc(N2CC[C@H](O)C2)ncc1-c1cc(C(F)(F)F)cc2[nH]ncc12 have?
Reply text: 24

* * *

Please go through the items and note down their Population Hoechst High Intensity Objects (%).
Test system: HEK-293T
test: Multiplex assay against HEK293T
Assay type: toxicity, cell-based
condition: human, 48 h, 10 µM, compound concentration 10 uM, replicate 2
Give the value, in units of %, as a plain number.

Inquiry: Endpoint output: Population Hoechst High Intensity Objects (%) of CC(C)OC(=O)N1CCC(Oc2ncnc3c2cnn3-c2ccc(S(C)(=O)=O)cc2F)CC1 . Value?
Reply text: 3

Inquiry: Endpoint output: Population Hoechst High Intensity Objects (%) of COc1ccccc1CN[C@H]1C2CCN(CC2)[C@H]1C(c1ccccc1)c1ccccc1 . Value?
Reply text: 2

Inquiry: Endpoint output: Population Hoechst High Intensity Objects (%) of COc1cc2ncn(-c3cc(OCc4ccccc4C(F)(F)F)c(C(N)=O)s3)c2cc1OC [GW843682X] . Value?
Reply text: 4

Inquiry: Endpoint output: Population Hoechst High Intensity Objects (%) of O=C(c1cc2c(cc1F)OC(c1ccc(F)cc1)(c1ccc(Cl)cc1Cl)O2)N1CCOCC1 (centres undefined) . Value?
Reply text: 8

Inquiry: Endpoint output: Population Hoechst High Intensity Objects (%) of CC1=C(C(=O)Nc2cc3cn[nH]c3cc2F)C(c2ccc(C(F)(F)F)cc2)CC(=O)N1 (centres undefined) . Value?
Reply text: 2

Inquiry: Endpoint output: Population Hoechst High Intensity Objects (%) of Cc1c[nH]c2nccc(Oc3c(F)cc(Nc4cc(Cl)nc(N)n4)cc3F)c12 . Value?
Reply text: 3

Inquiry: Endpoint output: Population Hoechst High Intensity Objects (%) of C#Cc1cccc(Nc2ncnc3cc(OCCOC)c(OCCOC)cc23)c1 . Value?
Reply text: 5

Inquiry: Endpoint output: Population Hoechst High Intensity Objects (%) of C[C@]12CC[C@@H]3c4ccc(O)cc4CC[C@H]3[C@@H]1CC[C@@H]2O . Value?
Reply text: 4

Inquiry: Endpoint output: Population Hoechst High Intensity Objects (%) of Cl.O=C(O)c1cc(-c2ccc(C3CCNCC3)cc2)c2ccc(-c3ccc(C(F)(F)F)cc3)cc2c1 . Value?
Reply text: 27
